System: OSR1;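 further: KINOMEscan kinase panel screen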
Construct: gene OXSR1
EXPERIMENTAL_CONTEXT: concentration: 1 μM, replicates: in singlicate; n = 1
Quick reference for %Inh among some compounds
Output spec: scalar in %, unitless text.

Some solved cases for reference:
* CCn1c(-c2nonc2N)nc2c(C#CC(C)(C)O)nc(OC[C@H](N)c3ccccc3)cc21 [GSK943949] | 0
* Nc1ncnc2c1nc(-c1ccccc1)n2-c1ccccc1 [SKF-97293] | 39
* COc1ccc(Nc2nccc(NCCNC(=O)c3cc4ccccc4s3)n2)cc1 [GSK1379896] | 10
* CN(C)Cc1ccc(-c2ccc3c(Nc4ccc(Oc5ccccn5)cc4)ccnc3c2)o1 [GW567148] | 15
* COc1cc(Nc2nccc(-c3c(-c4cccc(NC(=O)c5c(F)cccc5F)c4)nn4ccccc34)n2)cc(OC)c1OC [GSK323521] | 4
* CN1CCN(CCCNc2nccc(-c3c(-c4ccc(F)cc4)nn4cc(C(F)(F)F)ccc34)n2)CC1 [GW621581] | 6
* COc1cc(Nc2nccc(-c3c(-c4cccc(NC(=O)c5c(F)cccc5F)c4)nn4ncccc34)n2)cc(OC)c1OC [GSK327238] | 19
* Cl.Cl.NCC(NC(=O)c1cc(-c2ccccc2)c(-c2ccnc3[nH]ccc23)s1)c1ccccc1 (centres unmarked) [GSK1321561] | 15

**Query** // query %Inh value for entry CSc1cccc2c(-c3ccncn3)c(-c3ccc(F)cc3)nn12 [GW514786]
**Result** 8

**Query** // query %Inh value for entry CC(=O)N1CCN(c2ccc(Nc3nccc(-c4sc(C(C)C)nc4-c4cccc(NS(=O)(=O)c5cccc(Cl)c5)c4)n3)cn2)CC1 [GSK1660437]
**Result** 5

**Query** // query %Inh value for entry Clc1ccc(-c2nn3ncccc3c2-c2ccnc(Nc3ccc4c(c3)OCCO4)n2)cc1 [GW829116]
**Result** 0

**Query** // query %Inh value for entry O=C(Nc1cccc(-c2nn3ncccc3c2-c2ccnc(Nc3ccccc3)n2)c1)c1c(F)cccc1F [GSK198271]
**Result** 16

**Query** // query %Inh value for entry COc1cccc(C2=C(Nc3ccc(Cl)c(C(=O)O)c3)C(=O)NC2=O)c1 [SB-390769]
**Result** 100

**Query** // query %Inh value for entry Cc1cccc(NC(=O)Nc2ccc(Oc3ncnc4ccn(C)c34)cc2)c1
**Result** 0

**Query** // query %Inh value for entry Nc1ncc(-c2ccc3nccc(-c4ccncc4)c3c2)cc1S(=O)(=O)N1CCOCC1 [GSK1627798]
**Result** 0
